Data credit: patent US20140228435A1

- ASSAY_REMARKS: Acid dissociation constants (pKa), with van't Hoff temperature calculation
- Format: physicochemical
- TEST_SETTINGS: pKa of N(omega)′-protonated guanidino group
ENDPOINT_LABEL: pKa
Numbers only.

Entry N=C(N)NCCCC(N)C(=O)O [N(omega)′-protonated L-arginine] , pKa reported as 8.3

* * *

- ASSAY_REMARKS: Acid dissociation constants (pKa), with van't Hoff temperature calculation
- Assay type: physicochemical
- TEST_SETTINGS: pKa of guanidinium / N(delta)-protonated diaminomethyleneamino group
ENDPOINT_LABEL: pKa
Answers are plain numbers.

Entry NC(N)=NCCCC(N)C(=O)O (stereo not shown) [J-Factor] , pKa reported as 11.7
